- subject of test: aurora-2 kinase (Homo sapiens)
- Construct: purchased Upstate, Lake Placid, N.Y; host or cells: sf9 cells
- Sequence (O14965 whole entry): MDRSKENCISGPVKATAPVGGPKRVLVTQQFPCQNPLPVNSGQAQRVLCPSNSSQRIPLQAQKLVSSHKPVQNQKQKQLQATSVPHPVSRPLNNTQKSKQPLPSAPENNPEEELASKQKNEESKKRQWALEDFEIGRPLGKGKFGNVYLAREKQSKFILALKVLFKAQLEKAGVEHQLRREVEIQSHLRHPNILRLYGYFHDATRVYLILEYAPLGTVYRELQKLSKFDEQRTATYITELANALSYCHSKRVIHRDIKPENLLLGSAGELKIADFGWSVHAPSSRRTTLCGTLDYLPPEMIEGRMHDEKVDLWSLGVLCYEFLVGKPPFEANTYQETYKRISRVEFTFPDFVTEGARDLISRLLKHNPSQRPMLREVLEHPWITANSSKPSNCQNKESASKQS
- test details: aurora-2 kinase inhibition assay (Kinase-Glo, ATP remaining)
- Format: biochemical
- condition description: Example 17; 3 μM ATP; read-out: IC50 (drug concentration at which 50% of aurora-2 kinase activity was inhibited)
measured property: pIC50
Numbers only, as −log10 of the molar value.

Lookup: Fill in the blank: the reported pIC50 of "CC(=O)NS(=O)(=O)c1ccc(NC(=S)N2CCN(c3ncnc4[nH]c5cc(C(F)(F)F)c(Cl)cc5c34)CC2)cc1" is ____.
Found: 7.31

====

- subject of test: aurora-2 kinase (Homo sapiens)
- Construct: purchased Upstate, Lake Placid, N.Y; host or cells: sf9 cells
- test details: aurora-2 kinase inhibition assay (Kinase-Glo, ATP remaining)
- Assay type: biochemical
- condition description: Example 20; unit from the table's spanning head; read-out: IC50 A2K
measured property: log10(IC50) (log10 of the value in nM)
Note: values are log10 of IC50 expressed in nM.

| structure as smiles | subject of test | measured property | value measured |
| --- | --- | --- | --- |
| CC(=O)NS(=O)(=O)c1ccc(NC(=S)N2CCN(c3ncnc4[nH]c5ccc(Cl)cc5c34)CC2)cc1 | aurora-2 kinase (Homo sapiens) | log10(IC50) | 1.87 |
| COc1cc2[nH]c3ncnc(N4CCN(C(=S)Nc5ccc(NC(C)=O)cc5)CC4)c3c2cc1OC | aurora-2 kinase (Homo sapiens) | log10(IC50) | 3.70 |
| COc1cc2[nH]c3ncnc(N4CCN(C(=S)Nc5ccc(NC(=O)C6CC6)cc5)CC4)c3c2cc1OC | aurora-2 kinase (Homo sapiens) | log10(IC50) | 3.32 |

Please supply log10(IC50) for each of the following items, keeping them in order.
1. COc1cc2[nH]c3ncnc(N4CCN(C(=S)Nc5ccc(S(N)(=O)=O)cc5)CC4)c3c2cc1OC
2. COc1cc2c(cc1O)[nH]c1ncnc(N3CCN(C(=S)Nc4ccc(S(=O)(=O)NC(C)=O)cc4)CC3)c12
3. CC(=O)NS(=O)(=O)c1ccc(NC(=S)N2CCN(c3ncnc4[nH]c5cc(F)ccc5c34)CC2)cc1
4. COc1cc2[nH]c3ncnc(N4CCN(C(=S)Nc5ccc(S(=O)(=O)N6CCOCC6)cc5)CC4)c3c2cc1OC
5. COc1cc2[nH]c3ncnc(N4CCN(C(=S)Nc5ccc(S(C)(=O)=O)cc5)CC4)c3c2cc1OC

Found:
[2.77, 1.26, 1.36, 2.50, 2.87]

All figures here come from patent US20080207632A1.
